// reported Approximate Solubility (mg/mL) in Excipient: Sesame oil per item
assay notes: Solubility determination in oil (cottonseed oil, sesame oil)
settings: Sesame oil; heating temp. 40 °C, obs. temp. 40 °C

Illustrative cases are given below, each with its answer.
C=C1CC[C@@]2(O)C3Cc4ccc(OC(=O)CCCCCCCCCCCCCCCCCCCCC)c5c4[C@@]2(CCN3CC2CC2)[C@H]1O5    <51 mg/mL
CC(C)(C)CC(=O)Oc1ccc2c3c1O[C@H]1C(=O)CC[C@@]4(O)C(C2)N(CC2CC2)CC[C@]314    <52 mg/mL
C=C1CC[C@@]2(O)C3Cc4ccc(OC(=O)CCCCCCC/C=C\C/C=C\C/C=C\CC)c5c4[C@@]2(CCN3CC2CC2)[C@H]1O5    >406 mg/mL

Q: I have this compound here, C=C1CC[C@@]2(O)C3Cc4ccc(OC(=O)CCCCCCC/C=C\CCCCCCCC)c5c4[C@@]2(CCN3CC2CC2)[C@H]1O5 , and I need its recorded Approximate Solubility (mg/mL) in Excipient: Sesame oil.
Ans: >411.6 mg/mL

Q: I have this compound here, C=C1CC[C@@]2(O)C3Cc4ccc(OC(=O)CCCCCCC/C=C/CCCCCCCC)c5c4[C@@]2(CCN3CC2CC2)[C@H]1O5 , and I need its recorded Approximate Solubility (mg/mL) in Excipient: Sesame oil.
Ans: <52 mg/mL
